- assay notes: self-splicing fitness, log relative to wild type (ln ratio); higher = more splicing; Tetrahymena group I intron in knt gene, E. coli kanamycin selection, DiMSum; sequences stand for … in CUCUCU…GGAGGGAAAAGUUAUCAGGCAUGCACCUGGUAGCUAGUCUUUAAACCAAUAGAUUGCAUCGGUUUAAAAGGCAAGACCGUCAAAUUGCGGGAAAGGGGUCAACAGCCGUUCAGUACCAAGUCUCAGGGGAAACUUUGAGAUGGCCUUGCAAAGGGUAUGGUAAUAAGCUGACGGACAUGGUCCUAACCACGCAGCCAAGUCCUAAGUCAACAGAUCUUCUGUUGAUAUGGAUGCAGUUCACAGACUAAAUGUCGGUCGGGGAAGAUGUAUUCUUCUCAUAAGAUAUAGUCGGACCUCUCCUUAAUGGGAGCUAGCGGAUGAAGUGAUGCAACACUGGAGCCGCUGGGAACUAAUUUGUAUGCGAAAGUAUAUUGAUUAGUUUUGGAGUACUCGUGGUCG;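 note: selection with 25 µg/mL kanamycin versus none on LB agar overnight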
- assay context: 37 °C
measured property: self-splicing fitness (ln)
Could you respond with only the numeric value?

For orientation, consider the following solved cases.
ACGAAGCAAUAUUACGGCCC | 0.0496
GAGCAGCAAUAUUACGCCGC | -2.43
GUCUAGCAAUAUUACGUACG | -0.709
GAGCAGCAAUAUUACGGCGC | 0.209
CGUAAGCAAUAUUACGCCAC | -0.936

Input line: Annotate the sequence `UGUUAGCAAUAUUACGCGAC` with its measured self-splicing fitness (ln).
Output line: -1.59

Input line: Annotate the sequence `AAAGAGCAAUAUUACGUUUG` with its measured self-splicing fitness (ln).
Output line: -1.77
